Target: Fibroblast growth factor receptor 1 (Homo sapiens) (UniProt P11362)
Sequence (P11362 22-822 limits assumed): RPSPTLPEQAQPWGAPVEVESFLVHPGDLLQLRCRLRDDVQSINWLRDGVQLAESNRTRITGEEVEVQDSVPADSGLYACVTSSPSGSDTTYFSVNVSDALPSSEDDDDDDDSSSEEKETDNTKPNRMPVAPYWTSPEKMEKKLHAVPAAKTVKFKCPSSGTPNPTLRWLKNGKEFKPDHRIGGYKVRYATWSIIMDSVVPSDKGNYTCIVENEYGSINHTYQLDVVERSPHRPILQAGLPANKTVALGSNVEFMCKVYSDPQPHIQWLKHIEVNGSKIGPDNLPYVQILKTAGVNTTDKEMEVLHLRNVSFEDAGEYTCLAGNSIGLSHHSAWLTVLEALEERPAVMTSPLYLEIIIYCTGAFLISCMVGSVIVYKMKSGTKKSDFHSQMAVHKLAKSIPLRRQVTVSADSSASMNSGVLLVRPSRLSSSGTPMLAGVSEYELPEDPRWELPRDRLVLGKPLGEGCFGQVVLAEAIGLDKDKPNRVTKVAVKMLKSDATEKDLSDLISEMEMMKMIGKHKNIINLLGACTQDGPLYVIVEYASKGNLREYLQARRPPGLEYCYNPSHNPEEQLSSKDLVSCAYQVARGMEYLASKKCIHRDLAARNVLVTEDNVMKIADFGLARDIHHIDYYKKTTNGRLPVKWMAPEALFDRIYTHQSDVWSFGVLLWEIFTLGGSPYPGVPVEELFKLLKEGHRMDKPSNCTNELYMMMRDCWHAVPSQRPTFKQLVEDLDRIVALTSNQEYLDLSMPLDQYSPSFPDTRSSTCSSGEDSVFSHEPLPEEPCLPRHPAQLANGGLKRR
Details: at 10 µM
Hi, to clarify the labels: met covers residual activity from 40% upward, not met covers anything below 40%.

The examples below pair each entry with its known result.
# Molecule, Tested target, Class assignment
records = [
    ("CSc1nc(-c2ccc(F)cc2)c(-c2ccnc(NC(C)c3ccccc3)c2)[nH]1 (configuration not stated)", "Fibroblast growth factor receptor 1 (Homo sapiens) (UniProt P11362)", "met"),
    ("CC(C)(C)n1nc(Cc2cccc3ccccc23)c2c(N)ncnc21", "Fibroblast growth factor receptor 1 (Homo sapiens) (UniProt P11362)", "not met"),
    ("O=C1NC(=O)c2c1c1c3ccccc3[nH]c1n1cncc21", "Fibroblast growth factor receptor 1 (Homo sapiens) (UniProt P11362)", "not met"),
    ("COc1cc2nccc(Oc3ccc(NC(=S)NC(=O)c4ccccc4C)cc3)c2cc1OC", "Fibroblast growth factor receptor 1 (Homo sapiens) (UniProt P11362)", "not met"),
    ("O=S(=O)(NCCNC/C=C/c1ccc(Br)cc1)c1cccc2cnccc12", "Fibroblast growth factor receptor 1 (Homo sapiens) (UniProt P11362)", "not met"),
]

Input line: Dear colleague, could you confirm whether `O=C1Cc2c([nH]c3ccc([N+](=O)[O-])cc23)-c2ccccc2N1` has residual activity at or above 40%?
Output line: met

Input line: Dear colleague, could you confirm whether `O=C1Cc2c([nH]c3ccc(Br)cc23)-c2ccccc2N1` has residual activity at or above 40%?
Output line: not met

---

Target: Platelet-derived growth factor receptor beta (Homo sapiens)
Settings: at 10 µM
Observation type: residual activity
Your reply should be a number followed by the unit it is expressed in.

Examples from the recorded data:
# Compound, residual activity
rows = [
    ("O=c1c(-c2ccc(F)cc2)c(-c2ccncc2)[nH]n1-c1ccc(Cl)cc1", "99%"),
    ("NC(=O)Nc1sc(-c2ccc(F)cc2)cc1C(N)=O", "55%"),
    ("CC(C)(C)n1nc(Cc2cccc3ccccc23)c2c(N)ncnc21", "71%"),
    ("N#Cc1c(NC(=O)c2cccc3ccccc23)sc2c1CCCC2", "92%"),
    ("COc1cc2ncnc(Nc3cccc(Cl)c3)c2cc1OC", "103%"),
    ("Nc1ncnc2[nH]nc(Nc3ccc(F)cc3)c12", "109%"),
    ("CN([C@@H](Cc1ccc(OS(=O)(=O)c2cccc3cnccc23)cc1)C(=O)N1CCN(c2ccccc2)CC1)S(=O)(=O)c1cccc2cnccc12", "98%"),
    ("COc1ccc(CNC(=O)Nc2ncc([N+](=O)[O-])s2)cc1", "100%"),
]

Input line: Provide residual activity value for the following compound: `COc1ccc2c(c1)c(C1=C(c3c[nH]c4ccccc34)C(=O)NC1=O)cn2CCCN(C)C`
Output line: 63%

Input line: Provide residual activity value for the following compound: `O=C1Nc2ccc(Cl)cc2/C1=C/c1cc(Cl)c(O)c(Cl)c1`
Output line: 25%

Input line: Provide residual activity value for the following compound: `Nc1ncnc2c1c(-c1ccc(Oc3ccccc3)cc1)cn2C1CCCC1`
Output line: 6%

Input line: Provide residual activity value for the following compound: `Oc1cccc(-c2nc(N3CCOCC3)c3oc4ncccc4c3n2)c1`
Output line: 98%

Input line: Provide residual activity value for the following compound: `O=C1Cc2c([nH]c3ccc([N+](=O)[O-])cc23)-c2ccccc2N1`
Output line: 100%
